Assign max inhibition to each entry below.
# Protocol Text: RAM pathway signaling blockade in S. cerevisiae – dose response (AID 1307);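 also: 0% = DMSO vehicle wells and 100% = 10 µM 1-NA-PP1 control; higher inhibition means more yeast growth since RAM block rescues cells from 5-FOA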
# Experimental Setup: S. cerevisiae RAM network URA3 reporter, 5-FOA growth OD615, hits give high values, yeast express analog-sensitive mutant Cbk1 kinase; at 100 µM unless noted
Hit rate of the full screen: of about 1,200 compounds, fewer than 10 were called active. These entries were drawn from the full list. Results with a measured potency or affinity are listed apart.

A selection of reference data follows.
Input line: Any idea what max inhibition was measured for Cc1ccc(-n2c(SCC(=O)Nc3cccc(S(=O)(=O)NC4=NCCCCC4)c3)nc3ccccc3c2=O)cc1C ?
Output line: 11% (inactive)

Input line: Any idea what max inhibition was measured for Cc1cc(NC(=O)COC(=O)C(Nc2ccc(C(F)(F)F)cc2Cl)C(C)C)no1 (stereo not drawn) ?
Output line: 3.28% [at 12.5 µM] (inactive)

Please give max inhibition, item by item, for the list that follows.
1. O=C(NCc1ccc2c(c1)OCO2)c1cc(-c2ccccn2)nc2ccccc12
2. S=C(NCCC(c1ccccc1)c1ccccc1)Nc1ccccc1Cl
3. Cc1ccccc1Oc1ccc(-c2nc(N)nc(N)n2)cc1

Output line:
["4.19% [at 3.125 µM] (inactive)", "2.81% (inactive)", "3.9% (inactive)"]

Please give max inhibition, item by item, for the list that follows.
1. CCOC(=O)c1c(NC(=S)Nc2ccc(OC)cc2)sc2c1CCCCC2
2. Cc1ccc(NC(=O)COC(=O)CCC(=O)c2ccc(C(C)(C)C)cc2)c([N+](=O)[O-])c1
3. CCCCc1ccc(N=N/C(C(=O)Nc2ccccc2OC)=C(/C)O)cc1

Output line:
3.37% [at 1.563 µM] (inactive)
2.67% [at 0.196 µM] (inactive)
4.87% [at 50 µM] (inactive)

Please give max inhibition, item by item, for the list that follows.
1. CCCc1nn(C)c(C(=O)Nc2ccc(C(C)(C)C)cc2)c1Cl
2. CCOc1cccc(-c2csc(C3COc4ccccc4O3)n2)c1 (stereo not drawn)
3. COc1ccccc1C(NC(=O)C1CCCCC1)c1c(O)ccc2ccccc12 (stereo not drawn)
4. Cc1[nH]c2ccccc2c1/C=C/c1nc2ccccc2c(=O)n1-c1ccc([N+](=O)[O-])cc1

Output line:
1: 3.4% (inactive); 2: 5.04% [at 50 µM] (inactive); 3: 5.27% (inactive); 4: 6.44% (inactive)

Please give max inhibition, item by item, for the list that follows.
1. CCOC(=O)c1sc(-c2ccccc2)cc1NC(=O)c1ccc(S(=O)(=O)N(CCOC)CCOC)cc1
2. COc1cc(CC(NC(C)=O)C(=O)NC2CCN(c3c(Cc4ccccc4)c(C)nc4ncnn34)CC2)cc(OC)c1 (stereo not drawn)
3. O=C(CC12CC3CC(CC(C3)C1)C2)NC(=S)NCc1ccco1
4. CCCNS(=O)(=O)c1ccc(CCC(=O)Nc2cc(Cl)ccc2Oc2ccccc2)cc1
5. CC(C)Oc1cccc(C(=O)NC(=S)Nc2cccc(C(F)(F)F)c2)c1

Output line:
["1.69% [at 12.5 µM] (inactive)", "3.02% [at 25 µM] (inactive)", "5.22% [at 50 µM] (inactive)", "1.73% (inactive)", "2.41% [at 0.782 µM] (inactive)"]

Please give max inhibition, item by item, for the list that follows.
1. OCCNc1nc(SCc2ccccc2)nc2sc3c(c12)CCC3
2. C=CCSc1nnc(CCCCCN2C(=O)c3cccc4cccc(c34)C2=O)o1
3. C=CCc1cccc(/C=N/NC(=O)C(C)Nc2ccc(C)cc2)c1O (stereo not drawn)
4. O=C(COC(=O)CCN1C(=O)/C(=C\C=C\c2ccccc2)SC1=S)Nc1ccc(Br)cc1
5. CCC(C)c1ccc(NC(=S)NCc2ccccc2OC)cc1 (stereo not drawn)
6. Cc1ccc(NC(=O)Cc2ccc(Cl)c(Cl)c2)cc1S(=O)(=O)N(C)C
7. O=C(Nc1ccn(Cc2cccc3ccccc23)n1)c1cccnc1

Output line:
1.56% [at 3.125 µM] (inactive)
6.81% (inactive)
2.46% [at 0.782 µM] (inactive)
9.41% (inactive)
5.65% (inactive)
1.65% (inactive)
3.63% (inactive)

Please give max inhibition, item by item, for the list that follows.
1. O=S(=O)(c1ccccc1F)N(Cc1ccco1)Cc1nnc(-c2ccccc2Br)o1
2. C=CCN1C(=O)C(Cc2ccc(C)cc2)S/C1=N/N=C/c1ccco1 (stereo not drawn)
3. CCCCc1ccc(-c2csc(/C(C#N)=C/c3ccc(C)o3)n2)cc1
4. Cc1ccccc1NC(=O)CCCSc1nc2ccccc2s1
5. CC1CCCN(C(=O)C(C)Sc2nc(-c3ccccc3)cc(C(F)(F)F)n2)C1 (stereo not drawn)
6. O/N=C/c1cc(Br)ccc1OCc1cccc(F)c1
7. CCN(CC)S(=O)(=O)c1cc(NS(=O)(=O)c2c(Cl)cccc2Cl)ccc1C

Output line:
2.49% [at 1.563 µM] (inactive)
6.91% (inactive)
4.24% (inactive)
1.4% [at 25 µM] (inactive)
3.6% [at 25 µM] (inactive)
1.58% [at 0.196 µM] (inactive)
3.03% [at 50 µM] (inactive)

Please give max inhibition, item by item, for the list that follows.
1. COc1ccc(C(=O)CSc2nc(C(C)(C)C)nc3ccccc23)cc1
2. CC(C)c1ccc(CNc2cc(N3CCCC3)ccc2[N+](=O)[O-])cc1
3. O=C(COC(=O)c1cc(Cl)ccc1[N+](=O)[O-])NCc1ccc(Cl)cc1Cl
4. Cc1ccc(S(=O)(=O)N2c3cc(C)ccc3OCC2C(C)(C)C)cc1 (stereo not drawn)
5. O=C(OC(C(=O)Nc1cccc(C(F)(F)F)c1)c1ccccc1)C1CCCCC1 (stereo not drawn)
6. CCCCCCCCNC(=O)/C(C#N)=C/c1ccc(SC)cc1
7. O=C(/C=C/c1cccc(C(F)(F)F)c1)Nc1cccc(C(F)(F)F)c1

Output line:
["2.25% [at 1.563 µM] (inactive)", "5.27% (inactive)", "4.62% [at 1.563 µM] (inactive)", "3.04% (inactive)", "3.65% [at 50 µM] (inactive)", "5.43% (inactive)", "2.77% [at 12.5 µM] (inactive)"]

Please give max inhibition, item by item, for the list that follows.
1. O=C(O)c1cc(Sc2ccc(Br)cc2)nc2ccccc12
2. CCSC1=N/C(=C/c2ccsc2)C(=O)N1c1ccccc1
3. O=C(O)CCN1C(=O)/C(=C/c2cn(-c3ccccc3)nc2-c2cccs2)SC1=S
4. C/C(=N\OC(=O)c1ccc(OC(C)C)cc1)c1ccc(C)c(C)c1
5. CC(C)(CNC(=S)NCCc1ccccc1)CNC(=S)NCCc1ccccc1

Output line:
1: 4.44% [at 50 µM] (inactive); 2: 3.18% (inactive); 3: 5.53% (inactive); 4: 3.12% (inactive); 5: 4.96% (inactive)

----------
# Protocol Text: RAM pathway signaling blockade in S. cerevisiae – dose response (AID 1307);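 also: 0% = DMSO vehicle wells and 100% = 10 µM 1-NA-PP1 control; higher inhibition means more yeast growth since RAM block rescues cells from 5-FOA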
# Experimental Setup: S. cerevisiae RAM network URA3 reporter, 5-FOA growth OD615, hits give high values, yeast express analog-sensitive mutant Cbk1 kinase; at 100 µM unless noted
The whole screen tested about 1,200 compounds, of which fewer than 10 were called active. Not all results are given here. Results with a measured potency or affinity are listed apart.
Assign max inhibition to each entry below.

A selection of reference data follows.
Input line: Any idea what max inhibition was measured for CCOc1ccccc1NC(=O)C(OC(=O)c1cc(C)oc1C)c1ccccc1 (stereo not given) ?
Output line: 4.82% (inactive)

Input line: Any idea what max inhibition was measured for CCOC(=O)c1ccc(COC(=O)c2ccc3c(c2)-c2ccccc2C3=O)cc1 ?
Output line: 5.23% [at 25 µM] (inactive)

Input line: Any idea what max inhibition was measured for O=C1CCC(/C=C/c2ccccc2)=NN1Cc1ccc(Cl)c(Cl)c1 ?
Output line: 3.06% (inactive)

Input line: Any idea what max inhibition was measured for Cc1cc(C)c(C)c(S(=O)(=O)N2CCC(C(=O)OCC(=O)N3c4ccccc4NC(=O)C3(C)C)CC2)c1C ?
Output line: 4.49% (inactive)

Input line: Any idea what max inhibition was measured for COc1ccccc1OCC(=O)Nc1ccc(CSc2ccccc2)cc1C ?
Output line: 1.56% [at 25 µM] (inactive)

Please give max inhibition, item by item, for the list that follows.
1. CCCCCOP(=O)(OCCCCC)C1(NS(=O)(=O)c2ccccc2)C=CC(=O)c2ccccc21 (stereo not given)
2. CCOCCOC(=O)C(C)Oc1ccc(Oc2nc(Cl)ccc2Cl)cc1 (stereo not given)
3. CC(C)(C)OC(=O)NCCCCCNC(=O)c1[nH]cnc1C(=O)N[C@@H](Cc1ccccc1)C(=O)OCc1ccccc1
4. Cc1ccccc1-c1nnn(CC(=O)Nc2ccc3c(c2)OCCO3)n1
5. COc1ccc(C(=O)/C=C/c2ccc(OC)c(COc3ccc(F)cc3)c2)cc1

Output line:
1. 2.83% (inactive)
2. 2.21% [at 25 µM] (inactive)
3. 6.61% (inactive)
4. 4.6% (inactive)
5. 5.41% (inactive)

Values compiled from PubChem BioAssay AID1307.
